Tested on: mice bearing PSMA-expressing LNCAP cancer xenografts
Experiment Description: Biodistribution of 68Ga-labeled compounds
Format: in vivo
Condition Label: 3 h post-injection
Result Type: Tumor:Muscle ratio
// return just the number, without any unit appended

q: Query Tumor:Muscle ratio for O=C([O-])CN1CCN(CC(=O)[O-])CCN(CC(=O)NCCCC[C@H](NC(=O)CNC(=O)CCc2ccccc2)C(=O)NC[C@H]2CC[C@H](C(=O)N[C@@H](Cc3ccc4ccccc4c3)C(=O)NCCCC[C@H](NC(=O)N[C@@H](CCC(=O)O)C(=O)O)C(=O)O)CC2)CCN(CC(=O)[O-])CC1.[68Ga+3] [^68Ga-HTK03082]
a: 223

q: Query Tumor:Muscle ratio for O=C([O-])CN1CCN(CC(=O)[O-])CCN(CC(=O)NCCCC[C@H](NC(=O)CNC(=O)CCCc2ccc(F)cc2)C(=O)NC[C@H]2CC[C@H](C(=O)N[C@@H](Cc3ccc4ccccc4c3)C(=O)NCCCC[C@H](NC(=O)N[C@@H](CCC(=O)O)C(=O)O)C(=O)O)CC2)CCN(CC(=O)[O-])CC1.[68Ga+3] [^68Ga-HTK03085]
a: 95.8

q: Query Tumor:Muscle ratio for O=C([O-])CN1CCN(CC(=O)[O-])CCN(CC(=O)NCCCC[C@H](NC(=O)CNC(=O)CCCc2ccccc2)C(=O)NC[C@H]2CC[C@H](C(=O)N[C@@H](Cc3ccc4ccccc4c3)C(=O)NCCCC[C@H](NC(=O)N[C@@H](CCC(=O)O)C(=O)O)C(=O)O)CC2)CCN(CC(=O)[O-])CC1.[68Ga+3] [^68Ga-HTK03056]
a: 98.6

q: Query Tumor:Muscle ratio for O=C([O-])CN1CCN(CC(=O)[O-])CCN(CC(=O)NCCCC[C@H](NC(=O)CNC(=O)CCCc2ccc(Br)cc2)C(=O)NC[C@H]2CC[C@H](C(=O)N[C@@H](Cc3ccc4ccccc4c3)C(=O)NCCCC[C@H](NC(=O)N[C@@H](CCC(=O)O)C(=O)O)C(=O)O)CC2)CCN(CC(=O)[O-])CC1.[68Ga+3] [^68Ga-HTK03058]
a: 10.8

====

Test system: mice bearing PSMA-expressing LNCAP cancer xenografts
Experiment Description: Biodistribution of 68Ga-labeled compounds
Assay type: in vivo
Condition Label: 3 h post-injection
Result Type: Kidneys uptake

q: Query Kidneys uptake for O=C([O-])CN1CCN(CC(=O)[O-])CCN(CC(=O)NCCCC[C@H](NC(=O)CNC(=O)CCCc2ccc(Cl)cc2)C(=O)NC[C@H]2CC[C@H](C(=O)N[C@@H](Cc3ccc4ccccc4c3)C(=O)NCCCC[C@H](NC(=O)N[C@@H](CCC(=O)O)C(=O)O)C(=O)O)CC2)CCN(CC(=O)[O-])CC1.[68Ga+3] [^68Ga-HTK03055]
a: 35.6 ± 7.23 % ID/g

q: Query Kidneys uptake for O=C([O-])CN1CCN(CC(=O)[O-])CCN(CC(=O)NCCCC[C@H](NC(=O)CNC(=O)CCCc2ccc(F)cc2)C(=O)NC[C@H]2CC[C@H](C(=O)N[C@@H](Cc3ccc4ccccc4c3)C(=O)NCCCC[C@H](NC(=O)N[C@@H](CCC(=O)O)C(=O)O)C(=O)O)CC2)CCN(CC(=O)[O-])CC1.[68Ga+3] [^68Ga-HTK03085]
a: 63.4 ± 16.6 % ID/g

q: Query Kidneys uptake for Cc1ccc(CCCC(=O)NCC(=O)N[C@@H](CCCCNC(=O)CN2CCN(CC(=O)[O-])CCN(CC(=O)[O-])CCN(CC(=O)[O-])CC2)C(=O)NC[C@H]2CC[C@H](C(=O)N[C@@H](Cc3ccc4ccccc4c3)C(=O)NCCCC[C@H](NC(=O)N[C@@H](CCC(=O)O)C(=O)O)C(=O)O)CC2)cc1.[68Ga+3] [^68Ga-HTK03090]
a: 30.0 ± 8.66 % ID/g

q: Query Kidneys uptake for COc1ccc(CCCC(=O)NCC(=O)N[C@@H](CCCCNC(=O)CN2CCN(CC(=O)[O-])CCN(CC(=O)[O-])CCN(CC(=O)[O-])CC2)C(=O)NC[C@H]2CC[C@H](C(=O)N[C@@H](Cc3ccc4ccccc4c3)C(=O)NCCCC[C@H](NC(=O)N[C@@H](CCC(=O)O)C(=O)O)C(=O)O)CC2)cc1.[68Ga+3] [^68Ga-HTK03086]
a: 48.5 ± 10.7 % ID/g

q: Query Kidneys uptake for O=C([O-])CN1CCN(CC(=O)[O-])CCN(CC(=O)NCCCC[C@H](NC(=O)CNC(=O)CCCc2ccc(Br)cc2)C(=O)NC[C@H]2CC[C@H](C(=O)N[C@@H](Cc3ccc4ccccc4c3)C(=O)NCCCC[C@H](NC(=O)N[C@@H](CCC(=O)O)C(=O)O)C(=O)O)CC2)CCN(CC(=O)[O-])CC1.[68Ga+3] [^68Ga-HTK03058]
a: 17.5 ± 3.83 % ID/g

q: Query Kidneys uptake for O=C([O-])CN1CCN(CC(=O)[O-])CCN(CC(=O)NCCCC[C@H](NC(=O)CNC(=O)CCCc2ccc([N+](=O)[O-])cc2)C(=O)NC[C@H]2CC[C@H](C(=O)N[C@@H](Cc3ccc4ccccc4c3)C(=O)NCCCC[C@H](NC(=O)N[C@@H](CCC(=O)O)C(=O)O)C(=O)O)CC2)CCN(CC(=O)[O-])CC1.[68Ga+3] [^68Ga-HTK03089]
a: 96.4 ± 21.9 % ID/g

====

System: mice bearing PSMA-expressing LNCAP cancer xenografts
Experiment Description: Biodistribution of 68Ga-labeled compounds
Assay type: in vivo
Condition Label: 1 h post-injection
Result Type: Salivary uptake (% ID/g)
Answer in % ID/g, number only, no unit symbol.

q: Query Salivary uptake for O=C([O-])CN1CCN(CC(=O)[O-])CCN(CC(=O)NCCCC[C@H](NC(=O)CNC(=O)CCCc2ccc(Br)cc2)C(=O)NC[C@H]2CC[C@H](C(=O)N[C@@H](Cc3ccc4ccccc4c3)C(=O)NCCCC[C@H](NC(=O)N[C@@H](CCC(=O)O)C(=O)O)C(=O)O)CC2)CCN(CC(=O)[O-])CC1.[68Ga+3] [^68Ga-HTK03058]
a: 3.90

q: Query Salivary uptake for O=C([O-])CN1CCN(CC(=O)[O-])CCN(CC(=O)NCCCC[C@H](NC(=O)CNC(=O)CCCc2ccccc2)C(=O)NC[C@H]2CC[C@H](C(=O)N[C@@H](Cc3ccc4ccccc4c3)C(=O)NCCCC[C@H](NC(=O)N[C@@H](CCC(=O)O)C(=O)O)C(=O)O)CC2)CCN(CC(=O)[O-])CC1.[68Ga+3] [^68Ga-HTK03056]
a: 3.34

q: Query Salivary uptake for Cc1ccc(CCCC(=O)NCC(=O)N[C@@H](CCCCNC(=O)CN2CCN(CC(=O)[O-])CCN(CC(=O)[O-])CCN(CC(=O)[O-])CC2)C(=O)NC[C@H]2CC[C@H](C(=O)N[C@@H](Cc3ccc4ccccc4c3)C(=O)NCCCC[C@H](NC(=O)N[C@@H](CCC(=O)O)C(=O)O)C(=O)O)CC2)cc1.[68Ga+3] [^68Ga-HTK03090]
a: 2.48

====

Can you tell me Urine uptake for the items I'm about to list?
Tested on: mice bearing PSMA-expressing LNCAP cancer xenografts
Experiment Description: Biodistribution of 68Ga-labeled compounds
Type: in vivo
Condition Label: 3 h post-injection
Provide the measurement as a number trailed by its unit.

q: Query Urine uptake for O=C([O-])CN1CCN(CC(=O)[O-])CCN(CC(=O)NCCCC[C@H](NC(=O)CNC(=O)CCCc2ccc(I)cc2)C(=O)NC[C@H]2CC[C@H](C(=O)N[C@@H](Cc3ccc4ccccc4c3)C(=O)NCCCC[C@H](NC(=O)N[C@@H](CCC(=O)O)C(=O)O)C(=O)O)CC2)CCN(CC(=O)[O-])CC1.[68Ga+3] [^68Ga-HTK03024]
a: 3.68 ± 1.74 % ID/g

q: Query Urine uptake for O=C([O-])CN1CCN(CC(=O)[O-])CCN(CC(=O)NCCCC[C@H](NC(=O)CNC(=O)CCCc2ccc([N+](=O)[O-])cc2)C(=O)NC[C@H]2CC[C@H](C(=O)N[C@@H](Cc3ccc4ccccc4c3)C(=O)NCCCC[C@H](NC(=O)N[C@@H](CCC(=O)O)C(=O)O)C(=O)O)CC2)CCN(CC(=O)[O-])CC1.[68Ga+3] [^68Ga-HTK03089]
a: 88.5 ± 45.6 % ID/g

q: Query Urine uptake for O=C([O-])CN1CCN(CC(=O)[O-])CCN(CC(=O)NCCCC[C@H](NC(=O)CNC(=O)CCCc2ccccc2)C(=O)NC[C@H]2CC[C@H](C(=O)N[C@@H](Cc3ccc4ccccc4c3)C(=O)NCCCC[C@H](NC(=O)N[C@@H](CCC(=O)O)C(=O)O)C(=O)O)CC2)CCN(CC(=O)[O-])CC1.[68Ga+3] [^68Ga-HTK03056]
a: 275 ± 158 % ID/g

q: Query Urine uptake for COc1ccc(CCCC(=O)NCC(=O)N[C@@H](CCCCNC(=O)CN2CCN(CC(=O)[O-])CCN(CC(=O)[O-])CCN(CC(=O)[O-])CC2)C(=O)NC[C@H]2CC[C@H](C(=O)N[C@@H](Cc3ccc4ccccc4c3)C(=O)NCCCC[C@H](NC(=O)N[C@@H](CCC(=O)O)C(=O)O)C(=O)O)CC2)cc1.[68Ga+3] [^68Ga-HTK03086]
a: 1.30 ± 47.9 % ID/g

q: Query Urine uptake for Nc1ccc(CCCC(=O)NCC(=O)N[C@@H](CCCCNC(=O)CN2CCN(CC(=O)[O-])CCN(CC(=O)[O-])CCN(CC(=O)[O-])CC2)C(=O)NC[C@H]2CC[C@H](C(=O)N[C@@H](Cc3ccc4ccccc4c3)C(=O)NCCCC[C@H](NC(=O)N[C@@H](CCC(=O)O)C(=O)O)C(=O)O)CC2)cc1.[68Ga+3] [^68Ga-HTK03087]
a: 339 ± 355 % ID/g

q: Query Urine uptake for Cc1ccc(CCCC(=O)NCC(=O)N[C@@H](CCCCNC(=O)CN2CCN(CC(=O)[O-])CCN(CC(=O)[O-])CCN(CC(=O)[O-])CC2)C(=O)NC[C@H]2CC[C@H](C(=O)N[C@@H](Cc3ccc4ccccc4c3)C(=O)NCCCC[C@H](NC(=O)N[C@@H](CCC(=O)O)C(=O)O)C(=O)O)CC2)cc1.[68Ga+3] [^68Ga-HTK03090]
a: 53.9 ± 14.6 % ID/g

q: Query Urine uptake for O=C([O-])CN1CCN(CC(=O)[O-])CCN(CC(=O)NCC2CCC(C(=O)NC(Cc3c4ccccc4cc4ccccc34)C(=O)NCCCCC(NC(=O)NC(CCC(=O)O)C(=O)O)C(=O)O)CC2)CCN(CC(=O)[O-])CC1.[68Ga+3] (centres unmarked) [^68Ga-HTK03041]
a: 171 ± 93.3 % ID/g

q: Query Urine uptake for O=C([O-])CN1CCN(CC(=O)[O-])CCN(CC(=O)NCCCC[C@H](NC(=O)CNC(=O)CCc2ccccc2)C(=O)NC[C@H]2CC[C@H](C(=O)N[C@@H](Cc3ccc4ccccc4c3)C(=O)NCCCC[C@H](NC(=O)N[C@@H](CCC(=O)O)C(=O)O)C(=O)O)CC2)CCN(CC(=O)[O-])CC1.[68Ga+3] [^68Ga-HTK03082]
a: 191 ± 83.1 % ID/g
